// data source = PubChem BioAssay (NCI)

- System: HCC-2998 colon
- Assay comment: NCI tumour cell line growth inhibition, 48 h
Measurement label: TGI (µM)
Could you give me the number in µM? Just the number is fine.

Task: Which TGI is listed for CCC1=CC2Cc3nc4cc(Cl)ccc4c(N)c3C(C1)C2 (stereo not given) ?
Output: 3.69

Task: Continue with CC(C)CNc1nc(-c2ccccc2)nc2ccccc12
Output: 29.8

Task: Continue with Cc1ccc(S(=O)(=O)NC2C(=O)c3ccccc3C(=O)C2n2cnc3ccccc32)cc1 (stereo not given)
Output: 34.7

Task: Continue with Cc1cc(N2CCN(c3ccnc4cc(Cl)ccc34)CC2)nc(NC2CCCCC2)n1
Output: 3.84
